Data provenance: ChEMBL document CHEMBL1799944

# assay system: Adenosine receptor A3 (Homo sapiens, UniProt P0DMS8)
# Sequence (P0DMS8 whole entry): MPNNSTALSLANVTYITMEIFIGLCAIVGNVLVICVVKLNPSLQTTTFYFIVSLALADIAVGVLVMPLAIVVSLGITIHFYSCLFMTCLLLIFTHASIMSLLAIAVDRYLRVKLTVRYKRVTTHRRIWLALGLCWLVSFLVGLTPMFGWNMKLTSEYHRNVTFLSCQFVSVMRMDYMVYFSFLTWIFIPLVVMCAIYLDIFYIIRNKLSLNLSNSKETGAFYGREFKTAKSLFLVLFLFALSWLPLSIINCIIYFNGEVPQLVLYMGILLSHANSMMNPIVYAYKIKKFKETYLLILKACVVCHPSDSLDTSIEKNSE
# measurement notes: Inverse agonist activity at human recombinant A3 adenosine receptor expressed CHO cells by [35S]GTPgammaS binding assay
# Format: functional, cell-based
assay endpoint: pIC50
Lab note — pIC50 values are minus log10 of concentrations in M.

Ask: Any idea what its pIC50 is? The molecule is CC[C@@H]1CN2C(=O)N(C)c3nc(-c4cc(Cl)cc(Cl)c4Cl)[nH]c3C2=N1
Result: 8.40

---

# assay system: Adenosine receptor A2b (Homo sapiens)
# Sequence (whole entry): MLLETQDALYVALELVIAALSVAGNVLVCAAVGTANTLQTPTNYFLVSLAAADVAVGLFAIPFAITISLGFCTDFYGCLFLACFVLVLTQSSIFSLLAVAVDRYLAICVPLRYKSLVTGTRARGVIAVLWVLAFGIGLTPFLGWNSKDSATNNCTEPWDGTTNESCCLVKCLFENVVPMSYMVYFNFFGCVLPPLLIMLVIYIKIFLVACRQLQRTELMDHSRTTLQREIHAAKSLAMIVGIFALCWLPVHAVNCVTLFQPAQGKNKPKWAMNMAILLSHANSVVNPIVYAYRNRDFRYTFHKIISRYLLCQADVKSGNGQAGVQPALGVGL
# measurement notes: Antagonist activity human adenosine A2B receptor expressed in CHO cells assessed as inhibition of NECA-mediated [3H]cAMP accumulation at =<5000 nM after 150 mins by scintillation counter
# Format: functional, cell-based
Quick rule: inhibition of at least 20% means met, below that means not met.

In [3]: df
Out[3]:
                                   compound  class_label
0  C=CCN1C(=O)N2CC(C)N=C2c2[nH]c(-c3cc(C)n(C)n3)nc21 (racemic)      not met
1  CC[C@H]1CN2C(=O)N(Cc3ccccc3)c3nc(-c4cc(C)nn4C)[nH]c3C2=N1      not met
2  C=CCN1C(=O)N2C[C@H](CC)N=C2c2[nH]c(-c3cc(OC)nn3C)nc21      not met
3  Cc1cc(-c2nc3c([nH]2)C2=NC(C)CN2C(=O)N3Cc2ccccc2)n(C)n1 (racemic)      not met
4  CC[C@@H]1CN2C(=O)N(Cc3ccccc3)c3nc(-c4cc(C)nn4C)[nH]c3C2=N1      not met

Ask: Textbook exercise: given the entry COc1cc(-c2nc3c([nH]2)C2=N[C@@H](C)CN2C(=O)N3Cc2ccccc2)n(C)n1 , state whether its inhibition is greater than or equal to 20%.
Result: met

Ask: Now the same for C=CCN1C(=O)N2C[C@@H](C)N=C2c2[nH]c(-c3cc(C)nn3C)nc21
Result: not met

Ask: And then COc1cc(-c2nc3c([nH]2)C2=NC(C)CN2C(=O)N3Cc2ccccc2)n(C)n1 (stereo not drawn) , what is it?
Result: not met

Ask: Follow-up entry: C=CCN1C(=O)N2CC(CC)N=C2c2[nH]c(-c3cc(OC)nn3C)nc21 (racemic)
Result: not met

Ask: // next record C=CCN1C(=O)N2CC(C)N=C2c2[nH]c(-c3cc(OC)no3)nc21 (racemic)
Result: not met

Ask: Follow-up entry: C=CCN1C(=O)N2C[C@@H](CC)N=C2c2[nH]c(-c3cc(OC)nn3C)nc21
Result: met

Ask: How about this compound: CCC1CN2C(=O)N(Cc3ccccc3)c3nc(-c4cc(C)n(C)n4)[nH]c3C2=N1 (racemic)
Result: met

Ask: // next record COc1cc(-c2nc3c([nH]2)C2=NC(C)CN2C(=O)N3Cc2ccccc2)on1 (racemic)
Result: not met

Ask: Now this one: C=CCN1C(=O)N2C[C@H](C)N=C2c2[nH]c(-c3cc(C)nn3C)nc21
Result: not met

Ask: Please do the same for CCC1CN2C(=O)N(Cc3ccccc3)c3nc(-c4cc(OC)no4)[nH]c3C2=N1 (racemic) as well.
Result: not met

Ask: For COc1cc(-c2nc3c([nH]2)C2=N[C@H](C)CN2C(=O)N3Cc2ccccc2)n(C)n1 then?
Result: not met

Ask: Here is the next compound: CCC1CN2C(=O)N(Cc3ccccc3)c3nc(-c4cc(OC)nn4C)[nH]c3C2=N1 (racemic)
Result: met
